molecular target: Epidermal growth factor receptor (Homo sapiens)
Reported IC50 values are given for each entry in this list.

Result for COc1cc(N2CCC(N3CC(CO)C3)CC2)c(C)cc1Nc1ncc(Br)c(Nc2ccc3nccnc3c2P(C)(C)=O)n1 , tested on Epidermal growth factor receptor (Homo sapiens), IC50: 0.59 µM

Result for COCC1(C)CN(C2CCN(c3cc(OC)c(Nc4ncc(Br)c(Nc5ccc6nccnc6c5P(C)(C)=O)n4)cc3C)CC2)C1 , tested on Epidermal growth factor receptor (Homo sapiens), IC50: > 0.5 µM

Here is the next item to consider.
Result for COc1cc(N2CCC(N3CCN(C(C)=O)CC3)CC2)c(C)cc1Nc1ncc(Br)c(Nc2ccc3nccnc3c2P(C)(C)=O)n1 , tested on Epidermal growth factor receptor (Homo sapiens), IC50: 0.5 µM

====

assay: AUC (0 to infinity) in BALB/c mouse at 5 mg/kg, po measured upto 24 hrs by LC/MS-MS analysis; format: ADME, organism-based; design: time < 24 hrs, dose 5 mg/kg, route po; details: in vivo
Reported AUC(0-inf) values are given for each entry in this list.
Use ng·h/mL as the unit, but write only the number.

Study these solved cases before continuing.
Memo: COc1cc(N2CCC(N3CC(F)(CO)C3)CC2)c(C)cc1Nc1ncc(Br)c(Nc2ccc3nccnc3c2P(C)(C)=O)n1 , reported AUC(0-inf): 17000

Memo: COc1cc(N2CCC(N3CCN(C)CC3)CC2)ccc1Nc1ncc(Cl)c(Nc2ccccc2P(C)(C)=O)n1 [BRIGATINIB] , reported AUC(0-inf): 6500

Memo: COc1cc(N2CCC(N3CC(N(C)C)C3)CC2)c(C)cc1Nc1ncc(Br)c(Nc2ccc3nccnc3c2P(C)(C)=O)n1 , reported AUC(0-inf): 15600

Memo: COc1cc(N2CCC(N3C[C@H]4COC[C@H]4C3)CC2)c(C)cc1Nc1ncc(Br)c(Nc2ccc3nccnc3c2P(C)(C)=O)n1 , reported AUC(0-inf): 11200

Here is the next item to consider.
Memo: COc1cc(N2CCC(N3CC(CC#N)C3)CC2)c(C)cc1Nc1ncc(Br)c(Nc2ccc3nccnc3c2P(C)(C)=O)n1 , reported AUC(0-inf): 11200

====

Reported pIC50 values are given for each entry in this list.
biological target: Epidermal growth factor receptor (Homo sapiens, UniProt P00533, C797S/L858R/T790M); test: Inhibition of EGFR L858R/T790M/C797S triple mutant (unknown origin) using TK as substrate incubated for 120 mins in presence of ATP by HTRF assay
Sequence (P00533 25-1210 T790M/C797S/L858R limits assumed): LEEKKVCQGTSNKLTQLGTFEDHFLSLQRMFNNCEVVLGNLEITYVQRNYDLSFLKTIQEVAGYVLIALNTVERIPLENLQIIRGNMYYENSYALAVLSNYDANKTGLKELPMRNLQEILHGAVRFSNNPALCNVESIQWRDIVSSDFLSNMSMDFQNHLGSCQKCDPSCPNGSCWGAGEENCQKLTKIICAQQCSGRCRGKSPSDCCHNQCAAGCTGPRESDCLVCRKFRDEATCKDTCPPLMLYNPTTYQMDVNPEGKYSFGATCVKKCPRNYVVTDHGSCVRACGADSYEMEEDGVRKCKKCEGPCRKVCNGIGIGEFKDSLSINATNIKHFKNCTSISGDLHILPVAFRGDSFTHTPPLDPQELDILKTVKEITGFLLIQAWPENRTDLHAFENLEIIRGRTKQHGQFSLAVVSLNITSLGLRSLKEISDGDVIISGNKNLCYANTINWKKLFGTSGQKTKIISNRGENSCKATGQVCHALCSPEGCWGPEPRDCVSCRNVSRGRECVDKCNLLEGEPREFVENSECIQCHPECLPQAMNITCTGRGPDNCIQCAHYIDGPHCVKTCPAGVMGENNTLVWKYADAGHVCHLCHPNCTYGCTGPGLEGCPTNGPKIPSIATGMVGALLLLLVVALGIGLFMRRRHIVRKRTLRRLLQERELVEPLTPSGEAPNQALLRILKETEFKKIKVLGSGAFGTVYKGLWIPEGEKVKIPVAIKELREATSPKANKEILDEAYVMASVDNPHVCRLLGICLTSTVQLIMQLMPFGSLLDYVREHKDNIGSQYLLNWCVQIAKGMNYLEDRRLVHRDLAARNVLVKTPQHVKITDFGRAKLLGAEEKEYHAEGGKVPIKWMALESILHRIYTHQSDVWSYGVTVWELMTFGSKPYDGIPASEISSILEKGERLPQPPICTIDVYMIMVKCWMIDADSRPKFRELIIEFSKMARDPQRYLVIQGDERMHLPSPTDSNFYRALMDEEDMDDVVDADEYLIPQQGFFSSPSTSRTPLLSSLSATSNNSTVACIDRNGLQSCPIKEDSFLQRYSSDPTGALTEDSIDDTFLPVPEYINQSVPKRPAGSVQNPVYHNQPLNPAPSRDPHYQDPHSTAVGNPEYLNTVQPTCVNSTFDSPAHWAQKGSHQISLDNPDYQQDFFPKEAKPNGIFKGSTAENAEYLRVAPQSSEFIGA
Expect pIC50 as a plain number equal to -log10 of the molar concentration.

Result for COc1cc(N2CCC(N3CC(N(C)C)C3)CC2)c(C)cc1Nc1ncc(SC)c(Nc2ccc3nccnc3c2P(C)(C)=O)n1 , tested on Epidermal growth factor receptor (Homo sapiens, UniProt P00533, C797S/L858R/T790M), pIC50: 10.30

Result for COc1cc(N2CCC(N3CC[C@@H](N(C)C)C3)CC2)c(C)cc1Nc1ncc(Br)c(Nc2ccc3nccnc3c2P(C)(C)=O)n1 , tested on Epidermal growth factor receptor (Homo sapiens, UniProt P00533, C797S/L858R/T790M), pIC50: 9.89

Result for COCC1CN(C2CCN(c3cc(OC)c(Nc4ncc(Br)c(Nc5ccc6nccnc6c5P(C)(C)=O)n4)cc3C)CC2)C1 , tested on Epidermal growth factor receptor (Homo sapiens, UniProt P00533, C797S/L858R/T790M), pIC50: 10.22

---
Result for COc1cc(N2CCC(N3C[C@H]4COC[C@H]4C3)CC2)c(C)cc1Nc1ncc(Br)c(Nc2ccc3nccnc3c2P(C)(C)=O)n1 , tested on Epidermal growth factor receptor (Homo sapiens, UniProt P00533, C797S/L858R/T790M), pIC50: 9.92

Result for COc1cc(N2CCC(N3CC(CC#N)C3)CC2)c(C)cc1Nc1ncc(Br)c(Nc2ccc3nccnc3c2P(C)(C)=O)n1 , tested on Epidermal growth factor receptor (Homo sapiens, UniProt P00533, C797S/L858R/T790M), pIC50: 9.92

Result for COc1cc(N2CCC(N3CC(N(C)C)C3)CC2)c(C)cc1Nc1ncc(Cl)c(Nc2ccc3nccnc3c2P(C)(C)=O)n1 , tested on Epidermal growth factor receptor (Homo sapiens, UniProt P00533, C797S/L858R/T790M), pIC50: 9.92

Result for CCc1cc(Nc2ncc(Cl)c(Nc3ccc4nccnc4c3P(C)(C)=O)n2)c(OC)cc1N1CCC(N2CC(N(C)C)C2)CC1 , tested on Epidermal growth factor receptor (Homo sapiens, UniProt P00533, C797S/L858R/T790M), pIC50: 9.40

Origin of the recorded values: ChEMBL document CHEMBL5325448
